# measured-target: EcB (Escherichia coli, UniProt P0AES6)
reported-endpoint: Kd

Name the reported Kd value associated with the compound O=c1c(O)cccc2cc(O)c(O)c(O)c12
~4.54 µM

====

# measured-target: EcGyr (Escherichia coli, UniProt P0AES4+P0AES6)
# Sequence (P0AES4 whole entry, one chain of several): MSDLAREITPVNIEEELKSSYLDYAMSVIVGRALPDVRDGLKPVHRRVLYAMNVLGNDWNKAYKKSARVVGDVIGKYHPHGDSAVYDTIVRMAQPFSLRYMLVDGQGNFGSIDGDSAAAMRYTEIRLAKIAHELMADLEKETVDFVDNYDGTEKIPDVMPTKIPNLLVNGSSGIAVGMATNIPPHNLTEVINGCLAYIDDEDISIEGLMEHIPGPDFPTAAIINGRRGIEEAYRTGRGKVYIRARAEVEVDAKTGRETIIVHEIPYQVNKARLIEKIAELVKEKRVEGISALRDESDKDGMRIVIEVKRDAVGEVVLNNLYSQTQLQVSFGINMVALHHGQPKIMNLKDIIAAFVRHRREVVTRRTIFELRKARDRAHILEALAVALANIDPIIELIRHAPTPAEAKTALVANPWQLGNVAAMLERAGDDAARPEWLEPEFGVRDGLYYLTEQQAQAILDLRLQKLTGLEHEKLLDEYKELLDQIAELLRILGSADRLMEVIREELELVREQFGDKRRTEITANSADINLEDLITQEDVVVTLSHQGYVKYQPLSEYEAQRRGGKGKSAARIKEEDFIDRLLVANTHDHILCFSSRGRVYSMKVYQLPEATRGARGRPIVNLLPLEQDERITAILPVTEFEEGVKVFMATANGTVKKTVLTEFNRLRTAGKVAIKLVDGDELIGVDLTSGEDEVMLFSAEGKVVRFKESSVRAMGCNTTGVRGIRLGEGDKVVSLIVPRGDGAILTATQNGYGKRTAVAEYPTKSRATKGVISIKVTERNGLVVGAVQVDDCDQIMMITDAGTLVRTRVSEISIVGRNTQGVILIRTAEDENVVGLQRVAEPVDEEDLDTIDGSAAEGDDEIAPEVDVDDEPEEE
# assay: DNA supercoiling assay, E. coli gyrase
# conditions: relaxed pBR322, 37°C 30 min, 1% DMSO, n = 3; read-out: IC50 supercoiling inhibitory activity, EcGyr
reported-endpoint: IC50

Give EcGyr (Escherichia coli, UniProt P0AES4+P0AES6) IC50 for O=C1c2ccccc2C(=O)c2c1cc(S(=O)(=O)O)c(O)c2O [ARS]
> 100 µM

Give EcGyr (Escherichia coli, UniProt P0AES4+P0AES6) IC50 for O=c1c(O)cccc2cc(O)c(O)c(O)c12 [PPG]
> 1000 µM
